Hi there, I'd appreciate the recorded inhibition for every entry that follows.
Target: cGMP-dependent protein kinase 1 (Homo sapiens) (UniProt Q13976)
Sequence (Q13976 whole entry): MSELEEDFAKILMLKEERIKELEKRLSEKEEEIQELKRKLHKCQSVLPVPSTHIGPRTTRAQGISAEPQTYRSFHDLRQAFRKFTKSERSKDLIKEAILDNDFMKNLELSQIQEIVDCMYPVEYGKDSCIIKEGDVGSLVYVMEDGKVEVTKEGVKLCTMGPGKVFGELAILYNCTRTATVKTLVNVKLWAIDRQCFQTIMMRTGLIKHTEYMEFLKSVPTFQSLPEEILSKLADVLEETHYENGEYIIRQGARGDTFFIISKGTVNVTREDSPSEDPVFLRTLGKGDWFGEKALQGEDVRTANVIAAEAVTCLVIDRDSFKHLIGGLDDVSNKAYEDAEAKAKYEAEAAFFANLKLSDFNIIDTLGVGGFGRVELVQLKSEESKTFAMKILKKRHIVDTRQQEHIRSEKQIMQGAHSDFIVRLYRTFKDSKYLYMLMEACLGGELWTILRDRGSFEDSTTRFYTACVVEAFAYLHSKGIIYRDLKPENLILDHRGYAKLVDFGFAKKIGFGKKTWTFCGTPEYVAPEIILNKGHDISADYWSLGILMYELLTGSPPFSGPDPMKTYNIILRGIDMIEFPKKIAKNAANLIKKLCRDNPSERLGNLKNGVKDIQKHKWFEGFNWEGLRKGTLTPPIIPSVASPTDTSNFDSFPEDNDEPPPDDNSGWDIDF
Details: at 0.1 µM
Description: GSK_PKIS: PRKG1 mean inhibition at 0.1 uM [Nanosyn]
Numbers only, in %.

# TEST_SMILES, ASSAY_SYSTEM, RESULT
measured = [
    ("COc1c(C(N)=O)cc(-c2ccc(Cl)cc2)cc1-c1ccc(S(N)(=O)=O)cc1", "cGMP-dependent protein kinase 1 (Homo sapiens) (UniProt Q13976)", 4.35),
    ("COc1cc2c(cc1Nc1nc(Nc3cccc(F)c3C(N)=O)c3cc[nH]c3n1)N(C(=O)CN1CCN(C(C)C)CC1)CC2", "cGMP-dependent protein kinase 1 (Homo sapiens) (UniProt Q13976)", 4.61),
    ("COc1cccc(-n2ncc3c(N/N=C/c4ccc(C(=O)NCCN(C)C)cc4)ncnc32)c1", "cGMP-dependent protein kinase 1 (Homo sapiens) (UniProt Q13976)", 2.79),
]

Dear reader, for each entry below, please note its inhibition.
1. Cc1nnc(-c2cccc(-c3ccc(C(=O)NCC4CC4)cc3)c2)o1
2. Cc1c2ccc(N(C)c3ccnc(Nc4cccc(S(N)(=O)=O)c4)n3)cc2nn1C
3. CS(=O)(=O)Nc1ccc(-c2cc(-c3ccccc3)cc(C(N)=O)c2N)cc1
4. COc1ccc(-c2nn3ncccc3c2-c2ccnc(Nc3ccc(F)c(F)c3)n2)cc1
5. c1cnn2ncc(-c3ccnc(NCCCN4CCOCC4)n3)c2c1
6. NS(=O)(=O)c1ccc(N/N=C2\C(=O)Nc3cccc(CCc4ccncc4)c32)cc1
7. COc1cccc(Nc2nccc(-c3cnn4ncccc34)n2)c1

1: 3.58; 2: 3.15; 3: 2.68; 4: 2.68; 5: 3.07; 6: 0.22; 7: 5.54

---

Molecular target: Serine/threonine-protein kinase MARK2 (Homo sapiens) (UniProt Q7KZI7)
Sequence (Q7KZI7 whole entry): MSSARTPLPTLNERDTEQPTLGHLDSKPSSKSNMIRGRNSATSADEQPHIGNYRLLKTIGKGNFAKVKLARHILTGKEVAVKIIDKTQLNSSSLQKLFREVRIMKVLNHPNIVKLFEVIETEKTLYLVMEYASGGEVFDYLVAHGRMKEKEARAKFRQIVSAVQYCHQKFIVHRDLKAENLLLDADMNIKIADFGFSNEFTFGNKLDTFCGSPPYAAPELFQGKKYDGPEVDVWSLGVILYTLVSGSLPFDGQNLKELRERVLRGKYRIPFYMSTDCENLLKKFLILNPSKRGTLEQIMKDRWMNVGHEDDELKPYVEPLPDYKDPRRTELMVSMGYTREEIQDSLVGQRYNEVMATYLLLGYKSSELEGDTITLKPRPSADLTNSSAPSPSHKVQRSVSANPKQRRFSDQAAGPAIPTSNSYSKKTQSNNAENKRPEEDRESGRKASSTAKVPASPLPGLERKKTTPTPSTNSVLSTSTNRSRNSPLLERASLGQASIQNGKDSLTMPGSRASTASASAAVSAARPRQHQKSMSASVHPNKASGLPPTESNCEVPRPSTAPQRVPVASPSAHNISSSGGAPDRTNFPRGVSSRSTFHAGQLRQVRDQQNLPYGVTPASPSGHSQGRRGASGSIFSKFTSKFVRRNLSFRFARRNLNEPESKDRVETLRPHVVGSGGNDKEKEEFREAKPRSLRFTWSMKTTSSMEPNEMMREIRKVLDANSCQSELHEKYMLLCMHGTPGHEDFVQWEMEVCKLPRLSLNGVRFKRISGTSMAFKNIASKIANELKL
Conditions: at 1 µM
Description: GSK_PKIS: PAR-1Balpha mean inhibition at 1 uM [Nanosyn]
MEASURE: inhibition (%)
Give bare numbers, in %.

Study these solved cases before continuing.
# COMPOUND, inhibition (%)
rows = [
    ("CC1=C(C(=O)Nc2ccc3[nH]nc(C)c3c2)C(c2ccc(C(F)(F)F)cc2)CC(=O)N1 (centres undefined)", 4.76),
    ("COc1ccc(-c2nn3ncccc3c2-c2ccnc(Nc3ccc(F)c(F)c3)n2)cc1", 0.59),
    ("CCS(=O)(=O)c1ccc(OC)c(Nc2ncc(-c3cccc(C(C)=O)c3)o2)c1", -4.12),
]

Please look at the items below and tell me inhibition for each one, in order.
1. NS(=O)(=O)c1cccc(N/C=C2\C(=O)Nc3ccccc32)c1
2. CCCNc1cccc(-n2ncc3c(N/N=C/c4ccncc4)ncnc32)c1
3. Cc1ccc(-c2cc3c(NC(=O)C4CC4)ncnc3o2)cc1
4. NC(=O)c1ccc2c(-c3ccnc(NCCCO)n3)c(-c3ccc(F)cc3)nn2c1
5. Fc1ccc(Nc2nccc(-c3c(-c4ccc(C(F)(F)F)cc4)nn4ncccc34)n2)cc1F
6. COc1cc(N2CCN(C(C)C)CC2)ccc1Nc1nc(Nc2cccc3ncccc23)c2cc[nH]c2n1
7. CNC(=O)c1sc(-n2cnc3cc(OC)c(OC)cc32)cc1OCc1ccccc1C(F)(F)F
8. COc1c(C(N)=O)cc(-c2ccc(Cl)cc2)cc1-c1ccc(S(N)(=O)=O)cc1

12.6
4.97
3.45
1.98
2.64
1.39
1.67
1.57

---

Target: Insulin receptor (Homo sapiens) (UniProt P06213);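 further: each figure is a mean inhibition value from the GSK PKIS screening panel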
Sequence (P06213 28-758 limits assumed): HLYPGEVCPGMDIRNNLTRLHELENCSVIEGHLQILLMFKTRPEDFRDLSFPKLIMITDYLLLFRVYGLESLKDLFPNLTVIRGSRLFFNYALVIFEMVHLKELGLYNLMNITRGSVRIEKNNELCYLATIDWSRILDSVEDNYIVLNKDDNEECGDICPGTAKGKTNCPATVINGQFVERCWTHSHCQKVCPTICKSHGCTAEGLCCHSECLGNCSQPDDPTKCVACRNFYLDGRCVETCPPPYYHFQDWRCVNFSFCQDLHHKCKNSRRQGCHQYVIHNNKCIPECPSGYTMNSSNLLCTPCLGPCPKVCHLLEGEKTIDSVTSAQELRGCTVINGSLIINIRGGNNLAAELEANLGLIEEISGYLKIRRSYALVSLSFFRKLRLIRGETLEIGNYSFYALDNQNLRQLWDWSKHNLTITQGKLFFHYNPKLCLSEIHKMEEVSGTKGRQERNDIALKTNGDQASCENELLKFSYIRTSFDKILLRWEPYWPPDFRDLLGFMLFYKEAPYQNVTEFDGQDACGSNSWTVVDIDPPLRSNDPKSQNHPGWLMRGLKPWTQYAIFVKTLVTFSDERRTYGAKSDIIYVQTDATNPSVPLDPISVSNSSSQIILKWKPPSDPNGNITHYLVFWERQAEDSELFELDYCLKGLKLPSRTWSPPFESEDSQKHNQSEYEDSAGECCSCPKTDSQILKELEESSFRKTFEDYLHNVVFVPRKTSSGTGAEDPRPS
Sequence (P06213 763-1382 limits assumed): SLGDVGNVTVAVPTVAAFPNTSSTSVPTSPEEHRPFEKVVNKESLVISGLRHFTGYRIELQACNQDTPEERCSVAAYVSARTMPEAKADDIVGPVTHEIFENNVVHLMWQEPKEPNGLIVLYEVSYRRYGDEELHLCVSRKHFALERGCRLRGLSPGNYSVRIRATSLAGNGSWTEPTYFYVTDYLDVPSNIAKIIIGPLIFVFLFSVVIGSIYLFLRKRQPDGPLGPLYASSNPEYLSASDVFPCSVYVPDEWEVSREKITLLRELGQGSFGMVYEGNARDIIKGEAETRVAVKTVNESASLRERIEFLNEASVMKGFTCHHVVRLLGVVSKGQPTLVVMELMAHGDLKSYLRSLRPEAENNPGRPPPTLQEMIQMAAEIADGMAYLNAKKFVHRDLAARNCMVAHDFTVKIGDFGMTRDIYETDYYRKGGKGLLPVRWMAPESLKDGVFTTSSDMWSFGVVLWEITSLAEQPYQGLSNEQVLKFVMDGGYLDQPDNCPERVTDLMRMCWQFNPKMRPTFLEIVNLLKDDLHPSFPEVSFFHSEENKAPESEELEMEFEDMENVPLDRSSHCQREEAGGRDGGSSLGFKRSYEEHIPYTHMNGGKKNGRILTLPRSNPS
Settings: at 1 µM
MEASURE: inhibition (%)
Answers are plain numbers, in %.

Recorded inhibition, per entry:
# TEST_SMILES, ASSAY_SYSTEM, MEASURE, RESULT
rows = [
    ("FC(F)(F)CNc1nccc(-c2cnn3ncccc23)n1", "Insulin receptor (Homo sapiens) (UniProt P06213)", "inhibition", 1.21),
    ("O=C1Nc2ccccc2/C1=C1\\CCc2cc(O)ccc21", "Insulin receptor (Homo sapiens) (UniProt P06213)", "inhibition", 23),
    ("NS(=O)(=O)c1ccc(N/N=C2\\C(=O)Nc3ccc(C(=O)NCc4ccncc4)cc32)cc1", "Insulin receptor (Homo sapiens) (UniProt P06213)", "inhibition", 3.32),
]

Quick one: give me inhibition for each item below, same order please.
1. CS(=O)(=O)CCNCc1ccc(-c2ccc3ncnc(Nc4ccc(OCc5ccccc5)cc4)c3c2)o1
2. COc1cccc(-n2ncc3c(N/N=C/c4ccc(C(=O)NCCN(C)C)cc4)ncnc32)c1

[2.86, 1.97]
